TEST TARGET: T1, IL-6R-Fc 항원 (IL-6R full domain 단백질) (human, UniProt P08887 20-365)
T1 construct: domain: IL-6R full domain; Expressed transiently in HEK293E and purified from the supernatant; also called IL-6R 항원; not shown: Fc part from expression vector pYK 604
T1 sequence (looked up): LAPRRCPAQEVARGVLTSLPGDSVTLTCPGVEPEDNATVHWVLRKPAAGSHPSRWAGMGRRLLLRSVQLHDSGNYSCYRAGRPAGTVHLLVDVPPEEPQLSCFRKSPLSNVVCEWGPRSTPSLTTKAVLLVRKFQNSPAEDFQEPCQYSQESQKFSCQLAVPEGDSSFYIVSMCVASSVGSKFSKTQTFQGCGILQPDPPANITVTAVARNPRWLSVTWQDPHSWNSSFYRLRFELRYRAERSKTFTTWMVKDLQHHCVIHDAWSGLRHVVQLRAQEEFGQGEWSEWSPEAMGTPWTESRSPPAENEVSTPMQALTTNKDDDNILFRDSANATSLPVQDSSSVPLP
METHOD DESCRIPTION: ELISA, coated IL-6R 100 ng/well, anti-Fab-HRP
ENDPOINT: OD 490 nm at 0.78125 nM antibody
Entry format: amount then unit.

# input Give the reported OD 490 nm at 0.78125 nM antibody for this binder. 항 IL-6R 단클론 항체 D2 (IgG) (antibody, V domains shown, Phage clone converted to whole IgG) VH: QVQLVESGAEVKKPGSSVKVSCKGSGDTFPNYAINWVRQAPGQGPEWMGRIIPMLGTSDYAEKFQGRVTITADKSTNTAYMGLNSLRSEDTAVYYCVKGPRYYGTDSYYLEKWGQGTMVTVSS VL: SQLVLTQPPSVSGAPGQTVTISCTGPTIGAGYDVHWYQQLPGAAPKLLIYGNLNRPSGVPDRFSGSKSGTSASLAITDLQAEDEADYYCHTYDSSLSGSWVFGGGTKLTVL
# output 0.479 OD490

# input Note down OD 490 nm at 0.78125 nM antibody recorded for 항 IL-6R 단클론 항체 A7 (IgG) (antibody, V domains shown, Phage clone converted to whole IgG) VH: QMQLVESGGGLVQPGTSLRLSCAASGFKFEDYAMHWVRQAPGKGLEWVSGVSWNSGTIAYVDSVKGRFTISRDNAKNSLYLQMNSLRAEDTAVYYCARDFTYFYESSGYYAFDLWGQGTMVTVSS VL: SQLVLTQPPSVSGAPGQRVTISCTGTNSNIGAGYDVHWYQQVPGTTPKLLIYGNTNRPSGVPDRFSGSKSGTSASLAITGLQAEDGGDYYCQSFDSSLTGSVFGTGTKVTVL
# output 0.782 OD490

# input Look up OD 490 nm at 0.78125 nM antibody of 항 IL-6R 단클론 항체 F2 (IgG) (antibody, V domains shown, Phage clone converted to whole IgG) VH: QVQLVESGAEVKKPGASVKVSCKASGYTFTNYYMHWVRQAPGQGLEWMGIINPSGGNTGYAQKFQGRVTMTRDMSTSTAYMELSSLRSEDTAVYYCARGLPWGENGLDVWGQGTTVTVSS VL: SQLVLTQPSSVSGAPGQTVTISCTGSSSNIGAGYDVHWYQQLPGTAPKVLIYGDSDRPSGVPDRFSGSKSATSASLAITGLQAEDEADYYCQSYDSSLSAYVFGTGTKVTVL and report it.
# output 1.9 OD490

# input Answer with reported OD 490 nm at 0.78125 nM antibody of 항 IL-6R 단클론 항체 B10 (IgG) (antibody, V domains shown, Phage clone converted to whole IgG) VH: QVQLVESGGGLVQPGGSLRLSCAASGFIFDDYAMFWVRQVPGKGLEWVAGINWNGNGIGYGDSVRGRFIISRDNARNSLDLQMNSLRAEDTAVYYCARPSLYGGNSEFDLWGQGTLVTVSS VL: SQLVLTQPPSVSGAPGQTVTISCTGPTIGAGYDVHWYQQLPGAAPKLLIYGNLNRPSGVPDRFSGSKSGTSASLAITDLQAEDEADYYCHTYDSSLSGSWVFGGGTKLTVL
# output 0.5 OD490
